Some compounds, each annotated with its measured CC50 at 4 days.
- Assay details: Cytotoxicity, HepG2 cells, Resazurin assay
- Format: cell-based
- Experimental parameters: human

Worked examples follow.
Compound | CC50 at 4 days
CC[C@H](NS(=O)(=O)c1cc(C(=O)Nc2ccnc(C#N)c2)n(C)c1)C(F)(F)F [Compound 41] | > 25 µM
C[C@@H](NS(=O)(=O)c1cn(C)c(C(=O)Nc2ccc(F)c(C#N)n2)c1Cl)C(F)(F)F [Compound 156] | > 25 µM
Cc1cc(NC(=O)c2c(F)c(S(=O)(=O)N[C@H](C)C(C)(F)F)cn2C)cc(F)n1 [Compound 160] | > 25 µM
C[C@@H](NS(=O)(=O)c1cn(C)c(C(=O)Nc2ccccn2)c1Cl)C(F)(F)F [Compound 15] | > 25 µM
C[C@@H](NS(=O)(=O)c1cn(C)c(C(=O)Nc2c(F)cnc(F)c2F)c1Cl)C(F)(F)F [Compound 44] | > 25 µM
Cc1cc(NC(=O)c2c(Cl)c(S(=O)(=O)N[C@H](C)C(F)(F)F)cn2C)cc(Cl)n1 [Compound 141] | > 25 µM

query: I am curious: what CC50 at 4 days value has been reported for CC(O)C(C)NS(=O)(=O)c1cn(C)c(C(=O)Nc2ccnc(Cl)c2)c1Cl (racemic) [Compound 90] ?
result: > 25 µM

query: Try this compound next: Cn1cc(S(=O)(=O)NC2(C)CC(F)(F)C2)c(F)c1C(=O)Nc1ccnc(F)c1 [Compound 133]
result: > 25 µM
